Where do the numbers come from? From the supplement of paper PMC9112550.

- Test system: Escherichia coli TOP10
- TEST: shrunken log2 fold change of peptide-encoding DNA abundance (4.5 h post-induction vs induction); higher = less antimicrobial activity (less host growth inhibition)
- REPORTED CONDITIONS: time post-induction: 4.5 h; library: site-saturation at positions 5, 18, 19, 20
QUANTITY: shrunken log2 fold change
Keep it simple and answer with nothing but the number.

[
  {
    "CONSTRUCT SEQUENCE": "RRIRDRPPRLPRPRPRPKQSPRP",
    "RECORDED MEASUREMENT": 0.00791
  },
  {
    "CONSTRUCT SEQUENCE": "RRIRERPPRLPRPRPRPLEDPRP",
    "RECORDED MEASUREMENT": -0.157
  },
  {
    "CONSTRUCT SEQUENCE": "RRIRGRPPRLPRPRPRPVYQPRP",
    "RECORDED MEASUREMENT": 0.0322
  },
  {
    "CONSTRUCT SEQUENCE": "RRIRARPPRLPRPRPRPFMTPRP",
    "RECORDED MEASUREMENT": 0.178
  },
  {
    "CONSTRUCT SEQUENCE": "RRIRMRPPRLPRPRPRPVENPRP",
    "RECORDED MEASUREMENT": -0.0952
  }
]

Given the entry RRIRYRPPRLPRPRPRPKPIPRP , report its measured shrunken log2 fold change.
0.0874

Given the entry RRIRNRPPRLPRPRPRPCRHPRP , report its measured shrunken log2 fold change.
-0.149

Given the entry RRIRGRPPRLPRPRPRPWVFPRP , report its measured shrunken log2 fold change.
0.758

Given the entry RRIRARPPRLPRPRPRPRYAPRP , report its measured shrunken log2 fold change.
0.495

Given the entry RRIRDRPPRLPRPRPRPRHRPRP , report its measured shrunken log2 fold change.
0.375

Given the entry RRIRHRPPRLPRPRPRPTGAPRP , report its measured shrunken log2 fold change.
0.0132

Given the entry RRIRYRPPRLPRPRPRPNMAPRP , report its measured shrunken log2 fold change.
-0.00884

Given the entry RRIRGRPPRLPRPRPRPYFQPRP , report its measured shrunken log2 fold change.
-0.161

Given the entry RRIRTRPPRLPRPRPRPYDMPRP , report its measured shrunken log2 fold change.
0.0197

Given the entry RRIRFRPPRLPRPRPRPMLAPRP , report its measured shrunken log2 fold change.
0.0819

Given the entry RRIRTRPPRLPRPRPRPTWSPRP , report its measured shrunken log2 fold change.
0.256

----------
- System: Escherichia coli TOP10;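 note: peptides expressed intracellularly from a pBAD plasmid library in pooled LB shake-flask culture, induced with 0.3% L-arabinose, DNA abundance read by NGS, three biological replicates, DESeq2 with apeglm shrinkage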
- TEST: shrunken log2 fold change of peptide-encoding DNA abundance (4.5 h post-induction vs induction); higher = less antimicrobial activity (less host growth inhibition)
- REPORTED CONDITIONS: time post-induction: 4.5 h; library: site-saturation at positions 5, 18, 19, 20
Form field: shrunken log2 fold change (one value per entry).
Keep it simple and answer with nothing but the number.

Would you please look over these solved cases?
[
  {
    "CONSTRUCT SEQUENCE": "RRIRDRPPRLPRPRPRPRPEPRP",
    "TGT": "Escherichia coli TOP10",
    "shrunken log2 fold change": 0.538
  },
  {
    "CONSTRUCT SEQUENCE": "RRIRFRPPRLPRPRPRPDLQPRP",
    "TGT": "Escherichia coli TOP10",
    "shrunken log2 fold change": -0.0778
  },
  {
    "CONSTRUCT SEQUENCE": "RRIRKRPPRLPRPRPRPNTKPRP",
    "TGT": "Escherichia coli TOP10",
    "shrunken log2 fold change": -0.391
  }
]

Given the entry RRIRCRPPRLPRPRPRPPYHPRP , report its measured shrunken log2 fold change.
-0.334

Given the entry RRIRSRPPRLPRPRPRPTISPRP , report its measured shrunken log2 fold change.
-0.655

Given the entry RRIRHRPPRLPRPRPRPAQFPRP , report its measured shrunken log2 fold change.
-0.0111

Given the entry RRIRSRPPRLPRPRPRPFMYPRP , report its measured shrunken log2 fold change.
-0.513

Given the entry RRIRTRPPRLPRPRPRPANGPRP , report its measured shrunken log2 fold change.
-0.213

Given the entry RRIRQRPPRLPRPRPRPTGWPRP , report its measured shrunken log2 fold change.
0.19

Given the entry RRIRGRPPRLPRPRPRPDQWPRP , report its measured shrunken log2 fold change.
0.665

Given the entry RRIRHRPPRLPRPRPRPHCMPRP , report its measured shrunken log2 fold change.
-0.0295

Given the entry RRIRSRPPRLPRPRPRPWTQPRP , report its measured shrunken log2 fold change.
0.149

Given the entry RRIRYRPPRLPRPRPRPSMIPRP , report its measured shrunken log2 fold change.
-0.77

Given the entry RRIRYRPPRLPRPRPRPDIKPRP , report its measured shrunken log2 fold change.
-0.602

Given the entry RRIRNRPPRLPRPRPRPECTPRP , report its measured shrunken log2 fold change.
0.00282
